molecular target: histamine H4 receptor (Homo sapiens, UniProt Q9H3N8); construct: expressed in transfected cells; assay: In vitro histamine H4 potency in FLIPR (Ca2+ flux, Fluo-4) in HEK-293 cells coexpressing Gαqi5; type: cell-based; conditions: Kb values for antagonists and inverse agonists, EC50 values for partial agonists; HEK-293 cells with Gαqi5, Fluo-4
Sequence (Q9H3N8 whole entry, species assumed): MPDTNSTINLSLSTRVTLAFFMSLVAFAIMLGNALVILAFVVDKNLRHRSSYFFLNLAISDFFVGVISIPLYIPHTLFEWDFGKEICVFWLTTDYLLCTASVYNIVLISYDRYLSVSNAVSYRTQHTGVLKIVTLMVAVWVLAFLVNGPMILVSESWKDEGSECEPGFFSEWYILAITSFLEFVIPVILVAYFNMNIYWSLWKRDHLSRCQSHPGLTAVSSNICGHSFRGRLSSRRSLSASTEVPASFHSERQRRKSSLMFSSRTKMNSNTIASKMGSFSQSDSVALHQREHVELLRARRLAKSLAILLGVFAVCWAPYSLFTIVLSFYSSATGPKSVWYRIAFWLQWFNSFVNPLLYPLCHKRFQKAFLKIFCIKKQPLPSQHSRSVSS
Label rule, in plain words: Potency (nM), in vitro histamine H4 potency in FLIPR of 20 nM and up is Fulfilled, under 20 nM is Not fulfilled.

# smiles_code, label
rows = [
    ("Nc1nc(N2CC[C@@H](N)C2)c2c(n1)C1(CCCC1)CCC2", "Not fulfilled"),
    ("CN1CCC(Nc2nc(N)nc3c2CCCC32CCCC2)CC1", "Fulfilled"),
    ("Nc1nc(N2CC[C@@H]3CNC[C@@H]32)c2c(n1)C1(CCCC1)CCC2", "Fulfilled"),
    ("COC(=O)C1(N)CCN(c2nc(N)nc3c2CCCC32CCCC2)CC1", "Fulfilled"),
    ("CNC1CN(c2nc(N)nc3c2CCCC32CCCC2)C1", "Not fulfilled"),
]

---

target: histamine H4 receptor (Homo sapiens, UniProt Q9H3N8); construct: expressed in transfected cells; assay: In vitro histamine H4 potency in FLIPR (Ca2+ flux, Fluo-4) in HEK-293 cells coexpressing Gαqi5; type: cell-based; conditions: Kb values for antagonists and inverse agonists, EC50 values for partial agonists; HEK-293 cells with Gαqi5, Fluo-4
value_kind: Potency (nM), in vitro histamine H4 potency in FLIPR

# smiles_code, quantity_unit, measured
rows = [
    ("Nc1nc(N2CCC(N)(C(=O)O)CC2)c2c(n1)C1(CCCC1)CCC2", "nM", 21251),
    ("Nc1nc(N2C[C@H]3CCCN[C@H]3C2)c2c(n1)C1(CCCC1)CCC2", "nM", 8.5),
    ("Nc1nc(N2CCNCC2)c2c(n1)C1(CCCC1)CCC2", "nM", 2.8),
    ("Nc1nc(N2CC[C@@H](N)C2)c2c(n1)C1(CCCC2)Cc2ccccc2C1", "nM", 499),
    ("Nc1nc(N2CC[C@@H](N)C2)c2c(n1)C1(CCCCC1)CCCC2", "nM", 47),
]

---

molecular target: histamine H4 receptor (Homo sapiens, UniProt Q9H3N8); construct: expressed in transfected cells; assay: In vitro histamine H4 potency in FLIPR (Ca2+ flux, Fluo-4) in HEK-293 cells coexpressing Gαqi5; type: cell-based; conditions: Kb values for antagonists and inverse agonists, EC50 values for partial agonists; HEK-293 cells with Gαqi5, Fluo-4
# Potency (nM), in vitro histamine H4 potency in FLIPR listing for each entry below
value_kind: Potency (nM), in vitro histamine H4 potency in FLIPR

# smiles_code, quantity_unit, measured
data = [
    ("Nc1nc(N2CCNCC2)c2c(n1)C1(CCCC2)Cc2ccccc2C1", "nM", 26915),
    ("Nc1nc(N2CCCNCC2)c2c(n1)C1(CCCC1)CCC2", "nM", 9.8),
    ("CN(C)CCOc1nc(N)nc2c1CCCC21CCCC1", "nM", 7.8),
    ("Nc1nc(N2C[C@H]3CCCN[C@H]3C2)c2c(n1)C1(CCCCC1)CCCC2", "nM", 99),
    ("CN1CC[C@@H](Oc2nc(N)nc3c2CCCC32CCCC2)C1", "nM", 20),
    ("CN[C@@H]1CCN(c2nc(N)nc3c2CCCC32CCCC2)C1", "nM", 2.9),
    ("Nc1nc(N2CC(N)C2)c2c(n1)C1(CCCC1)CCC2", "nM", 68851),
    ("Nc1nc(N2CCNCC2)c2c(n1)C1(CCCCC1)CCCC2", "nM", 48),
    ("Nc1nc(N2CC[C@H]3CNC[C@H]32)c2c(n1)C1(CCCC1)CCC2", "nM", 1027),
    ("Nc1nc(N2CC[C@H](N)C2)c2c(n1)C1(CCCC1)CCC2", "nM", 53),
]

---

biological target: histamine H4 receptor (Homo sapiens); construct: expressed in transfected cells; assay: [3H]-histamine competition binding assay, membranes of HEK-293 cells transiently transfected with histamine H4 receptor; conditions: Ki by Cheng-Prusoff equation; HEK-293 membranes, 25° C., 1 hour, pH 7.4; read-out: Potency (nM), displacement of 3H-histamine
value_kind: Ki (nM)

# smiles_code, measured
rows = [
    ("Nc1nc(N2CC[C@@H](N)C2)c2c(n1)C1(CCCC1)CCC2", 4.6),
    ("Nc1nc(N2C[C@H]3CCCN[C@H]3C2)c2c(n1)C1(CCCC1)CCC2", 3.4),
    ("CN[C@@H]1CCN(c2nc(N)nc3c2CCCC32CCCC2)C1", 2.6),
    ("CNC1CN(c2nc(N)nc3c2CCCC32CCCC2)C1", 1.4),
    ("Nc1nc(N2CCNCC2)c2c(n1)C1(CCCCC1)CCCC2", 9.3),
    ("Nc1nc(N2CCNCC2)c2c(n1)C1(CCCC1)CCC2", 1.1),
    ("Nc1nc(N2CC[C@@H](N)C2)c2c(n1)C1(CCCCC1)CCCC2", 18),
    ("Nc1nc(N2CCCNCC2)c2c(n1)C1(CCCC1)CCC2", 2.8),
]
